From: ChEMBL document CHEMBL3991601

Target: Activated CDC42 kinase 1 (Homo sapiens, UniProt Q07912); note: in the data inactive means no Kd found up to 30 µM
Sequence (Q07912 whole entry): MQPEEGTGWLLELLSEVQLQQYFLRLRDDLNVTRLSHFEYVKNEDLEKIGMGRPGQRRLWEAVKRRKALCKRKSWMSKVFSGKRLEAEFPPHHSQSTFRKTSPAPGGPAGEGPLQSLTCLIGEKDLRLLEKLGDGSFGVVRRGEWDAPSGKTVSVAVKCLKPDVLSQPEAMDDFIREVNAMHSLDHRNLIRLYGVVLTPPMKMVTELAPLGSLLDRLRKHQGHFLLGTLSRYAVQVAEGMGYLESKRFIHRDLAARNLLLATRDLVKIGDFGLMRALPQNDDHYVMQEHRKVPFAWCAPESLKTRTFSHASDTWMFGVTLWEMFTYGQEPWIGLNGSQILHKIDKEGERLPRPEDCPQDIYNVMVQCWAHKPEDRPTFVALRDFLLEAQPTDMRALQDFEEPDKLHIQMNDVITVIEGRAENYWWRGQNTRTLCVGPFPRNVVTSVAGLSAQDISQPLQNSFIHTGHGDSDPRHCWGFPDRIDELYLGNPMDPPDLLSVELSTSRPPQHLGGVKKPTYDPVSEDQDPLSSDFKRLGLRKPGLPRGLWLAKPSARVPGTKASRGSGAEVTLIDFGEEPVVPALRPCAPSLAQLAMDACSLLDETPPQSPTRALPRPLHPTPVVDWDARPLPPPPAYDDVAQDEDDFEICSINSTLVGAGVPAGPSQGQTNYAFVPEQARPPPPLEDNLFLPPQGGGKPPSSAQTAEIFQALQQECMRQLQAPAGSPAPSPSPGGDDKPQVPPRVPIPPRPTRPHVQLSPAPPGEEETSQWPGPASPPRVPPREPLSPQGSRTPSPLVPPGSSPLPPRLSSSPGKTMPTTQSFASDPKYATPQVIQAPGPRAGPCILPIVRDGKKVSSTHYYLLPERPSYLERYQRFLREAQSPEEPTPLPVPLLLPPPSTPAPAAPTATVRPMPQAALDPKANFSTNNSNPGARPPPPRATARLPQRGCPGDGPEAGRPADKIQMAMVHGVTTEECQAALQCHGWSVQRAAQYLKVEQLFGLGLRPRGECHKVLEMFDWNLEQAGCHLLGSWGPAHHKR
Calls of active or inactive are those of the source.
Please state which outcome applies, choosing from Yes = active, No = inactive

These solved cases illustrate the format of a correct answer.
| compound | assay-system | class-name |
| --- | --- | --- |
| COc1cc2ncnc(Nc3ccc(F)c(Cl)c3)c2cc1NC(=O)/C=C/CN1CCCCC1 [DACOMITINIB ANHYDROUS] | Activated CDC42 kinase 1 (Homo sapiens, UniProt Q07912) | No |
| CCc1cc2c(cc1N1CCC(N3CCOCC3)CC1)C(C)(C)c1[nH]c3cc(C#N)ccc3c1C2=O [ALECTINIB] | Activated CDC42 kinase 1 (Homo sapiens, UniProt Q07912) | No |
| COc1cc2nccc(Oc3ccc(NC(=O)C4(C(=O)Nc5ccc(F)cc5)CC4)cc3)c2cc1OC [CABOZANTINIB] | Activated CDC42 kinase 1 (Homo sapiens, UniProt Q07912) | No |
| COc1ccc2c(OCc3nnc4ccc(-c5ccccc5)nn34)ccnc2c1 [AMG-208] | Activated CDC42 kinase 1 (Homo sapiens, UniProt Q07912) | No |
| CCc1nc(C(N)=O)c(Nc2ccc(N3CCC(N4CCN(C)CC4)CC3)c(OC)c2)nc1NC1CCOCC1 [GILTERITINIB] | Activated CDC42 kinase 1 (Homo sapiens, UniProt Q07912) | Yes |
| CC(C)CC(=O)Nc1[nH]nc2c1CN(C(=O)C1CCN(C)CC1)C2(C)C [PHA-793887] | Activated CDC42 kinase 1 (Homo sapiens, UniProt Q07912) | No |
| O=c1[nH]c([C@@H]2CCCN2)nc2c1oc1ccc(Cl)cc12 | Activated CDC42 kinase 1 (Homo sapiens, UniProt Q07912) | No |

Turning now to a further compound:
### Prompt Called result for Cc1cc(C(=O)Nc2cc(Oc3ccc4nc(NC(=O)C5CC5)cn4n3)ccc2C)n(C)n1 [TAK-593]
### Response No
